# SYSTEM: transforming growth factor-β1 (TGF-β1) (UniProt P01137 279-390)
# Sequence (P01137 279-390 limits assumed): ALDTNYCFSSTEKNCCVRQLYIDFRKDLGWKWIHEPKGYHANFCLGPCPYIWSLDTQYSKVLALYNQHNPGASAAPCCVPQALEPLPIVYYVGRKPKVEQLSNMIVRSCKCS
# ASSAY: equilibrium binding
# pKd listing for each entry below
Reminder that pKd means the negative base-10 logarithm of the concentration expressed in mol/L.

| BINDER | pKd |
| --- | --- |
| QPSHISKYILRWRPKNSVGRWKEAT (Synthetic peptide; also called FN634-658) [peptide 1 (QPSHISKYILRWRPKNSVGRWKEAT)] | 6.89 |

// query Could you share which pKd value was measured for QPSVGQQMIFEEHGFRRTTPPTTAT (Synthetic peptide) [peptide 4 (QPSVGQQMIFEEHGFRRTTPPTTAT)] ?
// result 7.00

// query Could you share which pKd value was measured for QPSHISKYILRWRPK [FN634-648 (QPSHISKYILRWRPK)] ?
// result 6.36

// query Could you share which pKd value was measured for QLISIQQYGHQEVTRFDFTTTSTST (Synthetic peptide) [peptide 2 (QLISIQQYGHQEVTRFDFTTTSTST)] ?
// result 6.57

// query Could you share which pKd value was measured for NGQTPIQRTIKPDVRSYTITGLQPGT (Synthetic peptide) [peptide 3 (NGQTPIQRTIKPDVRSYTITGLQPGT)] ?
// result 6.85

// query Could you share which pKd value was measured for ILRWRPKNSVGRWK ?
// result 6.40
